B1: TMEM192 (parent)
chain: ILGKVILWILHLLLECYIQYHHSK

- Variants of: B1
- protocol.notes: protein stability index of a GFP-peptide fusion (GPS, HEK-293T) (PSI 1-6); higher = more stable;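 note: lentivirally expressed fusions sorted by FACS into six bins by GFP to DsRed ratio, PSI derived from sequencing read proportions per bin multiplied by bin number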
- test.settings: c terminus: a fixed tail appended
value.kind: protein stability index
Give bare numbers.

# count of solved cases: 3
mutant.label: I18E
protein stability index: 2.99
//
mutant.label: C16I
protein stability index: 2.95
//
mutant.label: Y17K
protein stability index: 2.99

Turning now to a further record.
For the variant I6T , what protein stability index is on record?
3.07
